- PROCEDURE_SUMMARY: Study for assessing the central tissue distribution after oral administration to rats
- Assay type: in vivo, rat
- CONDITION_PARAMETERS: male, Crl: CD (SD), plasma; rat, oral 30 mg/kg, 1 hour after administration, mean value
- Method: Rats (strain: Crl: CD (SD), male, 7 weeks old, with diet) were orally administered a methylcellulose suspension containing a P2X7 receptor antagonist compound (Compound 7 or Compound 10). Then central tissue was collected from rats 1 hour after its administration, and the compound distribution to the collected central tissue was assessed. The dose of the compound per dose was 30 mg/kg, and the concentration of the compound in the suspension was 3 mg/mL. The study was carried out with n=2 or n=3.
Provide the recorded concentration at 1 h for the entries that follow.
Could you give me the number in µM? Just the number is fine.

Query: Return reported concentration at 1 h; argument: O=C(NCc1ccc(F)cc1Cl)[C@]1(F)CC[C@@](O)(CO)c2ncccc21
Reply: 19.3

Query: GET /values?readout=concentration at 1 h&item= O=C(NCc1ccc(Cl)cc1Cl)[C@]1(F)CC[C@@](O)(CO)c2ncccc21
Reply: 5.08
